Data origin, for the record: patent US12421249B2

I'd be grateful if you could share measured Emax for these entries.
- Tested On: APOL1 G1 (Homo sapiens, UniProt O14791, I384M/S342G)
- Sequence (O14791 28-398 S342G/I384M): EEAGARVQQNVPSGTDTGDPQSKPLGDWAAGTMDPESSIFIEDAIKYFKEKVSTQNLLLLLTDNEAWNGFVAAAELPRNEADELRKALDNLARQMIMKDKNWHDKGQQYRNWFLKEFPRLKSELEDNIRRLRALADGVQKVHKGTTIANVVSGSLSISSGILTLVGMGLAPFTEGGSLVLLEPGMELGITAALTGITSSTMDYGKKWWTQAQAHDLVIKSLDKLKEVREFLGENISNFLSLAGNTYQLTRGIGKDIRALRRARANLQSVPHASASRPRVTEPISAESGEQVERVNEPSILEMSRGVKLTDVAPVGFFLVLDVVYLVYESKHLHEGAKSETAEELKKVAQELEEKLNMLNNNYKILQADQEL
- Protocol Details: Trypanosoma brucei brucei Lysis Assay Using APOL1 Recombinant Protein (AlamarBlue viability readout)
- Type: cell-based
- Condition Parameters: Trypanosome Assay; read-out: Trypanosome Assay Max Activity (%)
Answers are plain numbers, in %.

CC1COC2(C[C@@H](c3cn(C)nn3)N[C@@H](C)C2)c2cc(Cl)sc21 (stereo in doubt)
102
COc1cccc([C@@H]2C[C@]3(C[C@H](C)N2)OCCc2cc(Cl)sc23)c1O (racemic)
57.5
Cc1nc([C@@H]2C[C@]3(C[C@H](C)N2)OCCc2cc(Cl)sc23)cn1C (racemic)
63.5
C[C@H]1C[C@@]2(C[C@@H](c3cc(C4CC4)n[nH]3)N1)OCCc1cc(Cl)sc12 (racemic)
91.5
C[C@H]1C[C@@]2(C[C@@H](c3cn(C)nn3)N1)OC[C@@H](O)c1cc(C(F)(F)F)sc12
102
C[C@H]1CC2(CC(c3cnn(C)c3)N1)OCC(O)c1cc(Cl)sc12 (single isomer, unassigned)
106
Cc1nn(C)c2ncc(C3CC4(CC(C)N3)OCCc3cc(Cl)sc34)cc12 (stereo not drawn)
110
CCC1CC2(CC(C)N1)OCCc1cc(Cl)sc12 (mixture of isomers)
112
COc1cc(O)cc([C@@H]2C[C@]3(C[C@H](C)N2)OCCc2cc(Cl)sc23)c1 (racemic)
84.5
Cc1ccnc([C@@H]2C[C@]3(C[C@H](C)N2)OCCc2cc(Cl)sc23)c1 (racemic)
98.3

Hey, quick one: what's Emax for each of these?
1. CC1CC2(CC(c3cnn(-c4cccnc4)c3)N1)OCCc1cc(Cl)sc12 (stereo not drawn)
2. C[C@H]1C[C@@]2(C[C@@H](c3cccc(-c4cn[nH]c4)c3)N1)OCCc1cc(Cl)sc12 (racemic)
3. C[C@H]1C[C@@]2(C[C@@H](c3cnccn3)N1)OCCc1cc(Cl)sc12 (racemic)
4. CC1CC2(CC(c3ccc4c(c3)OCC(=O)N4)N1)OCCc1cc(Cl)sc12 (stereo not drawn)

[118, 92.5, 114, 116]

Form field Emax, entry C[C@H]1C[C@@]2(C[C@@H](c3cn(C)nn3)N1)OCC(F)(F)c1cc(Cl)sc12 : 106

====

- Tested On: APOL1 (Homo sapiens, UniProt O14791)
- Protocol Details: Multi-Tox Assay (MultiTox-Fluor Multiplex Cytotoxicity Assay in tet-inducible APOL1 T-REx-HEK293 cells; Table 46 does not say which APOL1 variant G0/G1/G2)
- Condition Parameters: IP50 = IC50 for cell proliferation, APOL1 variant not given
pIC50: −log10 of the molar value.
I'd be grateful if you could share measured pIC50 for these entries.

Below, 8 compounds whose answers are already recorded.
C[C@H]1C[C@@]2(C[C@@H](c3cn(Cc4cocn4)nn3)N1)OC[C@@H](O)c1cc(Cl)sc12
6.30 to 7.30
C[C@H]1C[C@@]2(C[C@@H](c3cn(Cc4n[nH]c5ccccc45)nn3)N1)OC[C@@H](O)c1cc(Cl)sc12
> 7.30
C[C@H]1C[C@@]2(C[C@@H](c3cccc(-c4cn[nH]c4)c3)N1)OCCc1cc(Cl)sc12 (racemic)
6.30 to 7.30
CC(C)Cc1cc2c(s1)C1(C[C@@H](C)N[C@@H](C)C1)OCC2 (single isomer, unassigned)
6.30 to 7.30
C[C@H]1C[C@@]2(C[C@@H](c3cn(CC4CCCCO4)nn3)N1)OC[C@@H](O)c1cc(Cl)sc12 (some centres unmarked)
6.30 to 7.30
COc1ccc2[nH]c([C@@H]3C[C@]4(C[C@H](C)N3)OCCc3cc(Cl)sc34)cc2n1 (racemic)
> 7.30
CCOc1ccc([C@@H]2C[C@]3(C[C@H](C)N2)OCCc2cc(Cl)sc23)cc1O (racemic)
> 7.30
C[C@H]1CC2(CC(c3cnn(C)c3)N1)OCC(O)c1cc(Cl)sc12 (single isomer, unassigned) [Compound 176]
> 7.30

Hey, quick one: what's pIC50 for each of these?
1. C[C@H]1C[C@@]2(C[C@@H](c3cocn3)N1)OCCc1cc(Cl)sc12 (racemic)
2. Cc1ncc(Cn2cc([C@@H]3C[C@]4(C[C@H](C)N3)OC[C@@H](O)c3cc(Cl)sc34)nn2)cn1
3. C[C@H]1C[C@@]2(C[C@@H](c3ccccn3)N1)OCCc1cc(Cl)sc12 (racemic)
4. CC1CC2(CC(c3ccc4c(c3)OCC(=O)N4)N1)OCCc1cc(Cl)sc12 (centres unmarked)
5. C[C@H]1C[C@@]2(C[C@@H](c3cnn(-c4ccccc4)c3)N1)OCCc1cc(Cl)sc12 (racemic)
6. COCC1CC2(CC(c3cn(C)nn3)N1)OCCc1cc(Cl)sc12 (centres unmarked)
7. C[C@H]1C[C@@]2(C[C@@H](c3cn(Cc4cocn4)nn3)N1)OCC(F)(F)c1cc(Cl)sc12

1: > 7.30; 2: > 7.30; 3: > 7.30; 4: > 7.30; 5: > 7.30; 6: 6.30 to 7.30; 7: > 7.30

Hey, quick one: what's pIC50 for each of these?
1. Cc1nccn1CCCn1cc([C@@H]2C[C@]3(C[C@H](C)N2)OC[C@@H](O)c2cc(Cl)sc23)nn1
2. C[C@H]1C[C@@]2(C[C@@H](c3cccc(NS(C)(=O)=O)c3)N1)OCCc1cc(Cl)sc12 (racemic)
3. COc1ccc(C2CC3(CC(C)N2)OCCc2cc(Cl)sc23)nn1 (mixture of isomers)
4. C[C@H]1C[C@@]2(C[C@@H](c3cn(CC(F)F)nn3)N1)OCC(F)(F)c1cc(Cl)sc12
5. C[C@H]1C[C@@]2(C[C@@H](c3cn(Cc4ccc5nc(O)[nH]c5c4)nn3)N1)OC[C@@H](O)c1cc(Cl)sc12
6. C[C@H]1C[C@@]2(C[C@@H](c3cn(CC4CCC(=O)NC4)nn3)N1)OC[C@@H](O)c1cc(Cl)sc12 (some centres unmarked)

["6.30 to 7.30", "> 7.30", "> 7.30", "6.30 to 7.30", "6.30 to 7.30", "< 6.30"]

====

- Tested On: APOL1 G1 (Homo sapiens, UniProt O14791, I384M/S342G)
- Protocol Details: Trypanosoma brucei brucei Lysis Assay Using APOL1 Recombinant Protein (AlamarBlue viability readout)
- Assay type: cell-based
- Condition Parameters: Trypanosome Assay; IP50 = IC50 for cell proliferation; read-out: Trypanosome Assay IP50
I'd be grateful if you could share measured IC50 for these entries.

Hey, quick one: what's IC50 for each of these?
1. CCc1cc([C@@H]2C[C@]3(C[C@H](C)N2)OCCc2cc(Cl)sc23)on1 (stereo in doubt)
2. CC1CC2(CC(C)N1)OCCc1cc(Cl)sc12 (mixture of isomers)
3. Cc1c([C@@H]2C[C@]3(C[C@H](C)N2)OCCc2cc(Cl)sc23)cnn1C (racemic)

["< 50 nM", "50 to 500 nM", "50 to 500 nM"]

Hey, quick one: what's IC50 for each of these?
1. CC1CC2(CC(c3cnn(CCS(C)(=O)=O)c3)N1)OCCc1sc(C(F)(F)F)cc12 (centres unmarked)
2. C[C@H]1C[C@@]2(C[C@@H](c3ccc(O)cn3)N1)OCCc1cc(Cl)sc12 (racemic)

1. 50 to 500 nM
2. < 50 nM

====

- Tested On: APOL1 (Homo sapiens, UniProt O14791)
- Protocol Details: Multi-Tox Assay (MultiTox-Fluor Multiplex Cytotoxicity Assay in tet-inducible APOL1 T-REx-HEK293 cells; Table 46 does not say which APOL1 variant G0/G1/G2)
- Condition Parameters: IP50 = IC50 for cell proliferation, APOL1 variant not given
pIC50: −log10 of the molar value.
Property Name: pIC50

Below, 4 compounds whose answers are already recorded.
C[C@H]1C[C@@]2(C[C@@H](c3cn(CCOc4ccccc4F)nn3)N1)OCC(F)(F)c1cc(Cl)sc12 [Compound 354]
6.30 to 7.30
Cc1nccc([C@@H]2C[C@]3(C[C@H](C)N2)OCCc2cc(Cl)sc23)n1 (racemic) [Compound 116]
> 7.30
CC(C)C(=O)NCCn1cc([C@@H]2C[C@]3(C[C@H](C)N2)OCC(F)(F)c2cc(Cl)sc23)nn1 [Compound 345]
> 7.30
CC1CC2(CC(C(C)C)N1)OCCc1cc(Cl)sc12 (mixture of isomers) [Compound 214]
> 7.30

Hey, quick one: what's pIC50 for each of these?
1. CCc1cc2c(s1)C(C)COC21C[C@@H](c2cn(C)nn2)N[C@@H](C)C1 (stereo in doubt) [Compound 10]
2. CC(C)C(=O)NCCn1cc([C@@H]2C[C@]3(C[C@H](C)N2)OC[C@@H](O)c2cc(Cl)sc23)nn1 [Compound 230]
3. C[C@H]1C[C@@]2(C[C@@H](c3cn(CC(O)c4ccccc4)nn3)N1)OCC(F)(F)c1cc(Cl)sc12 (stereo partly drawn) [Compound 322]
4. CCOc1ccc([C@@H]2C[C@]3(C[C@H](C)N2)OCCc2cc(Cl)sc23)nc1 (racemic) [Compound 69]
5. Cc1noc(C)c1Cn1cc([C@@H]2C[C@]3(C[C@H](C)N2)OC[C@@H](O)c2cc(Cl)sc23)nn1 [Compound 237]

> 7.30
6.30 to 7.30
6.30 to 7.30
> 7.30
> 7.30
